Test: Plasma carnitine concentrations in Greyhound dogs on commercial dog food supplemented with L-Carnitine (ground beef)
Type: in vivo
Conditions: dog, plasma, po, 350 mg/animal/day, Week 2; average of 6 dogs; S.D. ±8.6; read-out: Plasma carnitine concentration, Total, AVG
property: concentration at 336 h (µM)
Dear colleague, please return just the value in µM, with no unit written.

(Q) Provide concentration at 336 h value for the following compound: C[N+](C)(C)C[C@H](O)CC(=O)[O-]
(A) 57

* * *

Assay: Plasma carnitine concentrations in Greyhound dogs on commercial dog food supplemented with L-Carnitine (ground beef)
Type: in vivo
Conditions: dog, plasma, po, 350 mg/animal/day, Week 1; individual dogs 1-6; ground beef 0.5 kg/day/dog (350 mg L-Carnitine/day); read-out: Plasma carnitine concentration, Free
property: concentration at 168 h (µM)
Dear colleague, please return just the value in µM, with no unit written.

(Q) Provide concentration at 168 h value for the following molecule: C[N+](C)(C)C[C@H](O)CC(=O)[O-]
(A) 58.9

* * *

Assay: Plasma carnitine concentrations in Greyhound dogs on commercial dog food supplemented with L-Carnitine (ground beef)
Assay type: in vivo
Conditions: dog, plasma, po, 350 mg/animal/day, Week 2; individual dogs 1-6; ground beef 0.5 kg/day/dog (350 mg L-Carnitine/day); read-out: Plasma carnitine concentration, Free
property: concentration at 336 h

(Q) Provide concentration at 336 h value for the following compound: C[N+](C)(C)C[C@H](O)CC(=O)[O-]
(A) 44.9 µM

* * *

Experiment: Plasma carnitine concentrations in Greyhound dogs on commercial dog food supplemented with L-Carnitine (ground beef)
Format: in vivo
Settings: dog, plasma, po, 350 mg/animal/day, Week 1; average of 6 dogs; S.D. ±6.5; * p ≤ 0.05 vs control; read-out: Plasma carnitine concentration, Total, AVG
property: concentration at 168 h (µM)
Dear colleague, please return just the value in µM, with no unit written.

(Q) Provide concentration at 168 h value for the following compound: C[N+](C)(C)C[C@H](O)CC(=O)[O-] [L-Carnitine]
(A) 62.5

* * *

Assay: Plasma carnitine concentrations in Greyhound dogs on commercial dog food supplemented with L-Carnitine (ground beef)
Format: in vivo
Conditions: dog, plasma, po, 350 mg/animal/day, Week 1; average of 6 dogs; S.D. ±3.5; ** p ≤ 0.01 vs control; read-out: Plasma carnitine concentration, Free, AVG
property: concentration at 168 h (µM)
Dear colleague, please return just the value in µM, with no unit written.

(Q) Provide concentration at 168 h value for the following compound: C[N+](C)(C)C[C@H](O)CC(=O)[O-]
(A) 55.9

* * *

Test: Plasma carnitine concentrations in Greyhound dogs on commercial dog food supplemented with L-Carnitine (ground beef)
Format: in vivo
Conditions: dog, plasma, po, 350 mg/animal/day, Week 1; individual dogs 1-6; ground beef 0.5 kg/day/dog (350 mg L-Carnitine/day); read-out: Plasma carnitine concentration, Total
property: concentration at 168 h (µM)
Dear colleague, please return just the value in µM, with no unit written.

(Q) Provide concentration at 168 h value for the following molecule: C[N+](C)(C)C[C@H](O)CC(=O)[O-]
(A) 70.1

Reference source: patent US5030458A
